- System: Pseudomonas Aeruginosa (ATCC27853)
- Protocol Details: Microtiter plate growth of Pseudomonas Aeruginosa with amines and GROTAN
- Assay type: cell-based
- Assay Conditions: amine 4000 ppm, GROTAN 0 ppm; pH 8.5, 24 hours
Class satisfied: growth of Pseudomonas Aeruginosa (Table 1 entry) at least 0.7. Class not satisfied: growth of Pseudomonas Aeruginosa (Table 1 entry) below 0.7.

Q) # check: growth of Pseudomonas Aeruginosa (Table 1 entry) of `CCCCN(CCO)CCO` is greater than or equal to 0.7
A) not satisfied

---

- System: Mycobacterium smegmatis (ATCC # 19420)
- Protocol Details: End-point optical density of Mycobacterium smegmatis with N-alkyl alkanolamines (590 nm, 72 h)
- Format: cell-based
- Assay Conditions: amine 1880 ppm; 590 nm, after 72 hours, pH 8.5, tetrazolium dye
Measured Parameter: end-point optical density
Give me the value, and tack the unit on after it.

Example results:
Compound	end-point optical density
CCCCN(CCO)CCCC	2000 milliOD
CCCCCCCCNCCO	0 milliOD
CCCCNCCO	2000 milliOD

Now let's try a different one.
Q) Bench note: what end-point optical density did CC(C)(N)CO [AMP, 2-methyl-2-amino-1-propanol, reference compound] show?
A) 2100 milliOD

---

Consider the following compounds; for each one, report its growth of Pseudomonas Aeruginosa (Table 1 entry).
- Test system: Pseudomonas Aeruginosa (ATCC27853)
- Protocol Details: Microtiter plate growth of Pseudomonas Aeruginosa with amines and GROTAN
- Type: cell-based
- Assay Conditions: amine 4000 ppm plus GROTAN 1000 ppm; pH 8.5, 24 hours

Compound	Measurement Target	Test Value
CCCCN(CCO)CCO	Pseudomonas Aeruginosa (ATCC27853)	0.28
CC(C)(C)NCCO	Pseudomonas Aeruginosa (ATCC27853)	0.28
CCCCNCCO	Pseudomonas Aeruginosa (ATCC27853)	0.29
CC(C)(N)CO [AMP, 2-methyl-2-amino-1-propanol, reference compound]	Pseudomonas Aeruginosa (ATCC27853)	0.30

Now, please, on to the next compound.
Q) Data request, read-out growth of Pseudomonas Aeruginosa (Table 1 entry), for NCCOCCO [DGA, diglycolamine, reference compound]
A) 0.29

---

- Tested on: Mycobacterium smegmatis (ATCC # 19420)
- Protocol Details: End-point optical density of Mycobacterium smegmatis with N-alkyl alkanolamines (590 nm, 72 h)
- Assay type: cell-based
- Assay Conditions: amine 940 ppm; 590 nm, after 72 hours, pH 8.5, tetrazolium dye
Measured Parameter: end-point optical density (milliOD)
Give bare numbers, in milliOD.

Below: 3 molecules and their reported end-point optical density.
Molecule	Measured Parameter	Test Value
CCCCN(CCO)CCCC	end-point optical density	2000
CC(C)(N)CO [AMP, 2-methyl-2-amino-1-propanol, reference compound]	end-point optical density	2200
CCCCCCCCNCCO	end-point optical density	0

Q) Find the recorded end-point optical density belonging to `CCCCNCCO` and report it.
A) 2100

---

- Test system: Pseudomonas aeruginosa (ATCC 10145)
- Protocol Details: Maximum growth slope of Pseudomonas aeruginosa with Proxel DB20 (BIT) plus alkanolamine
- Assay type: cell-based
- Assay Conditions: amine 1000 ppm plus BIT 150 ppm; pH 8.5, TSB, 24 hour
Measured Parameter: maximum growth slope (OD per time)
Answers are plain numbers, in OD per time.

Compound	maximum growth slope [OD per time]
CC(C)(N)CO [AMP, 2-methyl-2-amino-1-propanol, reference compound]	0.667

# map each compound to its maximum growth slope
1. CCCCCCCCNCCO
2. CCCCN(CCO)CCCC
3. CCCCNCCO

A)
0.000
0.221
0.317

---

- System: Pseudomonas Aeruginosa (ATCC27853)
- Protocol Details: Microtiter plate growth of Pseudomonas Aeruginosa with amines and GROTAN
- Type: cell-based
- Assay Conditions: amine 4000 ppm plus GROTAN 250 ppm; pH 8.5, 24 hours
Measured Parameter: growth of Pseudomonas Aeruginosa (Table 1 entry)

Known growth of Pseudomonas Aeruginosa (Table 1 entry) results, listed for orientation:
Compound	Measurement Target	Test Value
NCCOCCO [DGA, diglycolamine, reference compound]	Pseudomonas Aeruginosa (ATCC27853)	0.69
CCCCNCCO [BAE, butylaminoethanol]	Pseudomonas Aeruginosa (ATCC27853)	0.32
CC(C)(N)CO [AMP, 2-methyl-2-amino-1-propanol, reference compound]	Pseudomonas Aeruginosa (ATCC27853)	0.69
CCCCN(CCO)CCO [BDEA, butyldiethanolamine]	Pseudomonas Aeruginosa (ATCC27853)	0.51

Let us move to another entry and its growth of Pseudomonas Aeruginosa (Table 1 entry).
Q) GET /values?readout=growth of Pseudomonas Aeruginosa (Table 1 entry)&item= CC(C)(C)NCCO [TBAE, tert-butylaminoethanol]
A) 0.59

---

Can you tell me growth of Pseudomonas Aeruginosa (Table 1 entry) for the items I'm about to list?
- System: Pseudomonas Aeruginosa (ATCC27853)
- Protocol Details: Microtiter plate growth of Pseudomonas Aeruginosa with amines and GROTAN
- Format: cell-based
- Assay Conditions: amine 2000 ppm, GROTAN 0 ppm; pH 8.5, 24 hours
Give bare numbers.

// solved cases for growth of Pseudomonas Aeruginosa (Table 1 entry) follow
Molecule	Measurement Target	Test Value
CCCCNCCO [BAE, butylaminoethanol]	Pseudomonas Aeruginosa (ATCC27853)	0.37
CC(C)(C)NCCO [TBAE, tert-butylaminoethanol]	Pseudomonas Aeruginosa (ATCC27853)	0.67
NCCOCCO [DGA, diglycolamine, reference compound]	Pseudomonas Aeruginosa (ATCC27853)	0.76
CCCCN(CCO)CCO [BDEA, butyldiethanolamine]	Pseudomonas Aeruginosa (ATCC27853)	0.67

Now for another entry.
Q) // map CC(C)(N)CO [AMP, 2-methyl-2-amino-1-propanol, reference compound] to recorded growth of Pseudomonas Aeruginosa (Table 1 entry) (system: Pseudomonas Aeruginosa (ATCC27853))
A) 0.72

---

Exercise: state measured maximum growth slope for each of the molecules provided.
- Tested on: mixed enteric bacteria (klebsiella pneumoniae, Proteus vulgarus, Citrobacter sp., Escherichia coli)
- Protocol Details: Maximum growth slope of mixed enteric bacteria culture with GROTAN plus alkanolamine
- Format: cell-based
- Assay Conditions: 2500 ppm amine, GROTAN 0 ppm; pH 9.0, TSB with emulsified oil, 24 hour
Answers are plain numbers, in OD per time.

Molecule	Measured Parameter	Test Value
NCCOCCO [DGA, diglycolamine, reference compound]	maximum growth slope	0.796
CCCCNCCO	maximum growth slope	0.2
OCCNCCO	maximum growth slope	0.723

# context switch: different molecule, same maximum growth slope
Q) What value of measured maximum growth slope is listed for CC(C)(N)CO [AMP, 2-methyl-2-amino-1-propanol, reference compound] ?
A) 1.065

---

- Test system: Pseudomonas Aeruginosa (ATCC27853)
- Protocol Details: Microtiter plate growth of Pseudomonas Aeruginosa with amines and GROTAN
- Format: cell-based
- Assay Conditions: conclusion from Table 1
Measured Parameter: enhancement in the biocidal effect of GROTAN

Compound	Test Value
CC(C)(N)CO [AMP, 2-methyl-2-amino-1-propanol, reference compound]	not seen
NCCOCCO [DGA, diglycolamine, reference compound]	not seen

---

Can you tell me growth of Pseudomonas Aeruginosa (Table 1 entry) for the items I'm about to list?
- Tested on: Pseudomonas Aeruginosa (ATCC27853)
- Protocol Details: Microtiter plate growth of Pseudomonas Aeruginosa with amines and GROTAN
- Format: cell-based
- Assay Conditions: amine 4000 ppm plus GROTAN 100 ppm; pH 8.5, 24 hours
Numbers only.

Compound	Measurement Target	Test Value
CCCCN(CCO)CCO	Pseudomonas Aeruginosa (ATCC27853)	0.67
CC(C)(C)NCCO	Pseudomonas Aeruginosa (ATCC27853)	0.58
CCCCNCCO	Pseudomonas Aeruginosa (ATCC27853)	0.35
CC(C)(N)CO [AMP, 2-methyl-2-amino-1-propanol, reference compound]	Pseudomonas Aeruginosa (ATCC27853)	0.72

We next turn to a different compound, shown below.
Q) Dear colleague, I am looking for the recorded growth of Pseudomonas Aeruginosa (Table 1 entry) of the following compound: NCCOCCO [DGA, diglycolamine, reference compound]
A) 0.70

---

Exercise: for every item that follows, state its recorded maximum growth slope.
- System: Pseudomonas aeruginosa (ATCC 10145)
- Protocol Details: Maximum growth slope of Pseudomonas aeruginosa with Proxel DB20 (BIT) plus alkanolamine
- Format: cell-based
- Assay Conditions: amine 2000 ppm plus BIT 250 ppm; pH 8.5, TSB, 24 hour
Numbers only, in OD per time.

Please review the entries below; each comes with its answer.
Compound	Test Value
CCCCCCCCNCCO	0.000
CCCCN(CCO)CCCC	0.104
CCCCNCCO	0.000

Below: the item to evaluate.
Q) # maximum growth slope lookup, item CC(C)(N)CO [AMP, 2-methyl-2-amino-1-propanol, reference compound]
A) 0.320

---

- Tested on: Pseudomonas Aeruginosa (ATCC27853)
- Protocol Details: Microtiter plate growth of Pseudomonas Aeruginosa with amines and GROTAN
- Type: cell-based
- Assay Conditions: amine 4000 ppm, GROTAN 0 ppm; pH 8.5, 24 hours
Measured Parameter: growth of Pseudomonas Aeruginosa (Table 1 entry)

Example entries and their recorded answers appear below.
Compound	Test Value
NCCOCCO [DGA, diglycolamine, reference compound]	0.68
CC(C)(N)CO [AMP, 2-methyl-2-amino-1-propanol, reference compound]	1.12
CCCCNCCO	0.49

Alright, here's another compound for you.
Q) # input compound: `CC(C)(C)NCCO` ; wanted: its growth of Pseudomonas Aeruginosa (Table 1 entry)
A) 0.55
